Data provenance: the supplement of paper PMC13380429

- Tested on: U2OS
- Test Description: cell viability relative to DMSO; higher = less toxic
- Condition Label: 72 h; 10 nM
The entries below come with measured cell viability values attached.
Kindly provide the numeric value in % only, without the unit symbol.

N#C[C@@H]1C[C@@H]2C[C@@H]2N1C(=O)[C@@H](N)C12CC3CC(CC(O)(C3)C1)C2	102
COc1ccc(-c2nc(-c3ccc(-c4cccc(Cl)c4)o3)[nH]c2-c2ccc(OC)cc2)cc1 [neurodazine]	99
CCc1c(C(=O)NCCc2ccc(N3CCCCC3)cc2)[nH]c2ccc(Cl)cc12	93.9
Cc1c(NC(=O)OC[C@@H]2COCCN2)cn2ncnc(Nc3ccc4c(cnn4Cc4cccc(F)c4)c3)c12	101
CN(C(=O)Cc1ccc(Cl)c(Cl)c1)[C@H](CN1CCCC1)c1ccccc1	99.7
CCCCc1ncc(/C=C(\Cc2cccs2)C(=O)O)n1Cc1ccc(C(=O)O)cc1 [eprosartan]	101
CCOCOC[C@H](C[C@H](C)C(=O)NO)NC(=O)c1ccc(Oc2ccccc2)cc1 [ONO-4817]	103
C[C@@H](CCCCC(=O)Nc1ccc(C(F)(F)F)cc1)NCCc1c[nH]cn1 [HTMT]	100

Kindly review the next compound as well.
Sure, the documented cell viability for CC(C)(C)c1ccc(C(=O)CCCN2CCC(OC(c3ccccc3)c3ccccc3)CC2)cc1 [ebastine] is 94.6
